molecular target: MCL-1/Bim interaction (recombinant human MCL-1 protein, residues 171-327; biotinylated human Bim peptide, residues 51-76) (Homo sapiens (Human)); assay: MCL-1/Bim Binding AlphaLISA Assay; conditions: 0.0625 nM 6xHis-Mcl-1 (171-327), 0.0625 nM biotinylated-Bim peptide
Sequence (Q07820 171-327): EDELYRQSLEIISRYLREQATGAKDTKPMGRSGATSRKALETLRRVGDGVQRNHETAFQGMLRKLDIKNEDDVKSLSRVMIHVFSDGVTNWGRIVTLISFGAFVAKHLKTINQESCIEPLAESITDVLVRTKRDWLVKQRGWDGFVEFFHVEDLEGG
Hi there, I'd appreciate the recorded pIC50 for every entry that follows.
One number for each entry, as −log10 of the molar value.

• CO[C@H]1/C=C/C[C@H](C)C[S@@](=O)(NC(=O)[C@@]23COCC2C3)=NC(=O)c2ccc3c(c2)N(C[C@@H]2CC[C@H]21)C[C@@]1(CCCc2cc(Cl)ccc21)CO3 (stereo partly drawn) = 9.83
• C[C@H]1C/C=C/[C@H](O)[C@@H]2CC[C@H]2CN2C[C@@]3(CCCc4cc(Cl)ccc43)COc3ccc(cc32)C(=O)N=[S@](=O)(NC(=O)N[C@H]2C[C@@H]2C(F)F)C1 = 10.43

Query string: Report pIC50 for `CO[C@H]1/C=C/C[C@H](C)C[S@@](=O)(NC(=O)c2cc3n(n2)CCO3)=NC(=O)c2ccc3c(c2)N(C[C@@H]2CC[C@H]21)C[C@@]1(CCCc2cc(Cl)ccc21)CO3` please.
Result string: 10.00

Each recorded value in this set is attributed to patent US10703733B2.
